From: patent US8703913B2

- PROCEDURE DETAILS: Fluorescence titration of labeled ParM with ATP
- Assay type: binding
- COND: Table 2
- Description: The MDCC fluorescence was excited at 431 nm and emission was recorded at 474 nm. The equilibrium dissociation constants were determined by fitting a quadratic binding curve to the data. For the plot the experimental fluorescence intensities were converted to the nucleotide bound fraction of ParM. […] ADP and ATP were purchased from Sigma at the highest purity available. The purity of the nucleotides was analysed by HPLC using a Partisphere SAX column, 125×4.5 mm (Whatman). […]
Kd ratio ATP/ADP reference
Please respond with just the number, no unit label.

• T174A T175A: MDCC-ParM (His6/I27C/T174A/T175A/C287A) (conjugate, UniProt P11904 1-320, looked up, variant I27C T174A T175A C287A, MDCC label; His6 tag) Plasmid segregation protein …: MLVFIDDGSTNIKLQWQESDGTIKQHCSPNSFKREWAVSFGDKKVFNYTLNGEQYSFDPISPDAVVTTNIAWQYSDVNVVAVHHALLTSGLPVSEVDIVCTLPLTEYYDRNNQPNTENIERKKANFRKKITLNGGDTFTIKDVKVMPESIPAGYEVLQELDELDSLLIIDLGGAALDISQVMGKLSGISKIYGDSSLGVSLVTSAVKDALSLARTKGSSYLADDIIIHRKDNNYLKQRINDENKISIVTEAMNEALRKLEQRVLNTLNEFSGYTHVMVIGGGAELIADAVKKHTQIRDERFFKTNNSQYDLVNGMYLIGN = 324

// moving on: another record for Kd ratio ATP/ADP
Prompt: I have this molecule here, T175F: MDCC-ParM (His6/I27C/T175F/C287A) (conjugate, UniProt P11904 1-320, looked up, variant I27C T175F C287A, MDCC label; His6 tag) Plasmid segregation protein …: MLVFIDDGSTNIKLQWQESDGTIKQHCSPNSFKREWAVSFGDKKVFNYTLNGEQYSFDPISPDAVVTTNIAWQYSDVNVVAVHHALLTSGLPVSEVDIVCTLPLTEYYDRNNQPNTENIERKKANFRKKITLNGGDTFTIKDVKVMPESIPAGYEVLQELDELDSLLIIDLGGTFLDISQVMGKLSGISKIYGDSSLGVSLVTSAVKDALSLARTKGSSYLADDIIIHRKDNNYLKQRINDENKISIVTEAMNEALRKLEQRVLNTLNEFSGYTHVMVIGGGAELIADAVKKHTQIRDERFFKTNNSQYDLVNGMYLIGN , and I need its recorded Kd ratio ATP/ADP.
Completion: 29
